Recorded melting point by entry

Take a look at these entries with their results.
- molecule: "CC(=NN1CCN(C[C@@]2(C)Cn3cc([N+](=O)[O-])nc3O2)CC1)c1ccc(Cl)cc1"
  melting point: "164.6 to 166.5 °C"
- molecule: "CC1(c2cccnc2)Cn2cc([N+](=O)[O-])nc2O1 (stereo not shown)"
  melting point: "212 to 214 °C"
- molecule: "C[C@]1(CN2CCC(N3CCN(CC=Cc4ccc(OC(F)(F)F)cc4)CC3)CC2)Cn2cc([N+](=O)[O-])nc2O1"
  melting point: "174 to 175 °C"
- molecule: "CC1(CN2CCN(C(=O)c3ccc(Cl)cc3)CC2)Cn2cc([N+](=O)[O-])nc2O1 (stereo not shown)"
  melting point: "150 to 155.2 °C"

**Q:** Sample CC1(CN2CCN(C(=S)Nc3ccccc3)CC2)Cn2cc([N+](=O)[O-])nc2O1 (stereo not shown) — what was its melting point?
**A:** 164 to 165 °C (dec.)

**Q:** Sample CC1(CNC(=O)OCc2ccc(F)cc2)Cn2cc([N+](=O)[O-])nc2O1 (stereo not shown) — what was its melting point?
**A:** 200.4 to 202.1 °C

**Q:** Sample CC(C)n1c(=O)n(CC2(C)Cn3cc([N+](=O)[O-])nc3O2)c2cc(Cl)ccc21 (stereo not shown) — what was its melting point?
**A:** 240.5 to 244.8 °C

**Q:** Sample CC1(CN2CCC(C(=O)c3ccc(Cl)cc3)CC2)Cn2cc([N+](=O)[O-])nc2O1 (stereo not shown) — what was its melting point?
**A:** 165 to 167 °C

* * *

parameter: melting point

Take a look at these entries with their results.
- compound: "Cn1c(=O)n(CC2(C)Cn3cc([N+](=O)[O-])nc3O2)c2cc(Cl)ccc21 (stereo not drawn)"
  parameter: "melting point"
  valueReported: "261.9 to 265.4 °C (dec.)"
- compound: "CC1(CN2CCN(Cc3ccccc3)C2=O)Cn2cc([N+](=O)[O-])nc2O1 (stereo not drawn)"
  parameter: "melting point"
  valueReported: "180.2 to 180.9 °C"
- compound: "CC(C)(C)OC(=O)N1CCC(c2ccc(OCC3(C)Cn4cc([N+](=O)[O-])nc4O3)cc2)CC1 (stereo not drawn)"
  parameter: "melting point"
  valueReported: "207.8 to 209.1 °C"

**Q:** Sample CCOC(=O)C1CCN(c2ccc(OC[C@@]3(C)Cn4cc([N+](=O)[O-])nc4O3)cc2)CC1 — what was its melting point?
**A:** 208.2 to 211.5 °C

**Q:** Sample CN(Cc1ccc(OC(F)(F)F)cc1)C(=O)OC[C@@]1(C)Cn2cc([N+](=O)[O-])nc2O1 — what was its melting point?
**A:** 123 to 124 °C

**Q:** Sample CC1(CN2CCN(C(=O)Nc3ccc(Cl)c(Cl)c3)CC2)Cn2cc([N+](=O)[O-])nc2O1 (stereo not drawn) — what was its melting point?
**A:** 212 to 214 °C (dec.)

**Q:** Sample C[C@]1(CN2CCN(C(=O)N3CC=C(c4ccc(Cl)cc4)CC3)CC2)Cn2cc([N+](=O)[O-])nc2O1 — what was its melting point?
**A:** 161 to 162 °C

**Q:** Sample CC1(COC(=O)N2CC=C(c3ccc(C(F)(F)F)cc3)CC2)Cn2cc([N+](=O)[O-])nc2O1 (stereo not drawn) — what was its melting point?
**A:** 113 to 115 °C

**Q:** Sample CC1(CN2CCN(C(=O)OCc3ccccc3)CC2)Cn2cc([N+](=O)[O-])nc2O1 (stereo not drawn) — what was its melting point?
**A:** 130.5 to 132.1 °C

* * *

parameter: melting point

Take a look at these entries with their results.
- compound: "CN(Cc1cccc(Cl)c1)C[C@@]1(C)Cn2cc([N+](=O)[O-])nc2O1"
  melting point: "177.5 to 178.5 °C"
- compound: "CN(CCCOc1ccc(OC(F)(F)F)cc1)C[C@@]1(C)Cn2cc([N+](=O)[O-])nc2O1"
  melting point: "92 to 95 °C"
- compound: "CC1(CN2CCN(S(=O)(=O)CCc3ccc(Cl)cc3)CC2)Cn2cc([N+](=O)[O-])nc2O1 (stereo not drawn)"
  melting point: "182 to 184 °C"
- compound: "CNC(C1CCN(c2ccc(OC(F)(F)F)cc2)CC1)[C@]1(C)Cn2cc([N+](=O)[O-])nc2O1 (stereo partly drawn)"
  melting point: "127.2 to 129.7 °C"
- compound: "CC1(COc2ccc(C3CCN(Cc4ccc(OC(F)(F)F)cc4)CC3)cc2)Cn2cc([N+](=O)[O-])nc2O1 (stereo not drawn)"
  melting point: "160.6 to 161.1 °C"

Now take the following compound into account.
**Q:** Sample C[C@]1(COc2ccc(C3=CCN(C(=O)OCc4ccc(OC(F)(F)F)cc4)CC3)cc2)Cn2cc([N+](=O)[O-])nc2O1 — what was its melting point?
**A:** 174.3 to 174.8 °C

* * *

Recorded melting point by entry

Take a look at these entries with their results.
- compound: "CN(CCOc1ccc(C(F)(F)F)cc1)C[C@@]1(C)Cn2cc([N+](=O)[O-])nc2O1"
  melting point: "123 to 126 °C"
- compound: "CC1(CN2CCN(C(=O)Cc3ccccc3)CC2)Cn2cc([N+](=O)[O-])nc2O1 (stereo not drawn)"
  melting point: "175.2 to 175.9 °C"
- compound: "C[C@]1(CN2CCN(c3cccnc3)CC2)Cn2cc([N+](=O)[O-])nc2O1"
  melting point: "145 to 147.7 °C"
- compound: "CC1(CCCN2CCN(C(=O)OCc3ccc(C(F)(F)F)cc3)CC2)Cn2cc([N+](=O)[O-])nc2O1 (stereo not drawn)"
  melting point: "130 to 133 °C"
- compound: "C[C@]1(COc2ccc(N3CCN(C(=O)c4ccc(OC(F)(F)F)cc4)CC3)cc2)Cn2cc([N+](=O)[O-])nc2O1"
  melting point: "201.5 to 203.2 °C"
- compound: "CC(C)(C)OC(=O)N1CCC(c2ccc(OC[C@@]3(C)Cn4cc([N+](=O)[O-])nc4O3)cc2)CC1"
  melting point: "227.5 to 228.3 °C (dec.)"
- compound: "CC1(CCSc2nc3ccccc3o2)Cn2cc([N+](=O)[O-])nc2O1 (stereo not drawn)"
  melting point: "174 to 175 °C"
- compound: "C[C@]1(CN2CCN(C(=O)NC3CCCCC3)CC2)Cn2cc([N+](=O)[O-])nc2O1"
  melting point: "98 to 101 °C"
- compound: "CN(CCN1CCN(c2ccc(C(F)(F)F)cc2)CC1)C[C@@]1(C)Cn2cc([N+](=O)[O-])nc2O1"
  melting point: "148 to 150.5 °C"
- compound: "CC(C)COC(=O)N1CCN(CC2(C)Cn3cc([N+](=O)[O-])nc3O2)CC1 (stereo not drawn)"
  melting point: "176.5 to 177.3 °C"

**Q:** Sample CNC(C1CCN(C(=O)OCc2ccc(Cl)cc2)CC1)[C@]1(C)Cn2cc([N+](=O)[O-])nc2O1 (stereo partly drawn) — what was its melting point?
**A:** 116.2 to 116.6 °C

**Q:** Sample C[C@]1(CN2CCN(c3cc(-c4ccccc4)nc(-c4ccccc4)n3)CC2)Cn2cc([N+](=O)[O-])nc2O1 — what was its melting point?
**A:** 202.5 to 205.4 °C

**Q:** Sample CC(C)(C)OC(=O)c1ccc(NC(=O)N2CCC3(CC2)Cn2cc([N+](=O)[O-])nc2O3)cc1 — what was its melting point?
**A:** > 300 °C

**Q:** Sample CC1(CN2CCN(C(=O)c3ccc(-c4ccccc4)cc3)CC2)Cn2cc([N+](=O)[O-])nc2O1 (stereo not drawn) — what was its melting point?
**A:** 116 to 118 °C

**Q:** Sample CC1(Cn2nc(CCc3ccc(Cl)cc3)oc2=O)Cn2cc([N+](=O)[O-])nc2O1 (stereo not drawn) — what was its melting point?
**A:** 139 to 140 °C

* * *

Recorded melting point by entry

- molecule: "CC(C)(C)OC(=O)N1CCN(c2ccc(OC[C@@]3(C)Cn4cc([N+](=O)[O-])nc4O3)cc2)CC1"
  valueReported: "230 to 232 °C"
- molecule: "C[C@]1(CN2CCN(Cc3ccc(OC(F)(F)F)cc3)CC2)Cn2cc([N+](=O)[O-])nc2O1"
  valueReported: "137 to 138 °C"
- molecule: "Cc1ccc(C(=O)N2CCN(CC3(C)Cn4cc([N+](=O)[O-])nc4O3)CC2)cc1 (centres unmarked)"
  valueReported: "121 to 122 °C"

**Q:** Sample CC1(CN2CCN(C(=O)Cc3ccc(C(F)(F)F)cc3)CC2)Cn2cc([N+](=O)[O-])nc2O1 (centres unmarked) — what was its melting point?
**A:** 168 to 171.4 °C

**Q:** Sample C[C@]1(CN2CCC(N3CCC(Oc4ccc(OC(F)(F)F)cc4)CC3)CC2)Cn2cc([N+](=O)[O-])nc2O1 — what was its melting point?
**A:** 131 to 132 °C

**Q:** Sample C[C@]1(COc2ccc(N3CCN(Cc4ccc(OC(F)(F)F)cc4)CC3)cc2)Cn2cc([N+](=O)[O-])nc2O1 — what was its melting point?
**A:** 213.5 to 217 °C

**Q:** Sample C[C@]1(COc2ccc(OC(F)(F)F)cc2)Cn2cc([N+](=O)[O-])nc2O1 — what was its melting point?
**A:** 176.5 to 178 °C

**Q:** Sample C[C@]1(CN2CCN(C(=O)c3ccc(C(F)(F)F)cc3)CC2)Cn2cc([N+](=O)[O-])nc2O1 — what was its melting point?
**A:** 183 to 184 °C
